meta.source: patent US9163021B2

The following compounds are shown together with reported IC50 values.
test_target: TRKA (Homo sapiens (Human))
Sequence (P04629 441-796): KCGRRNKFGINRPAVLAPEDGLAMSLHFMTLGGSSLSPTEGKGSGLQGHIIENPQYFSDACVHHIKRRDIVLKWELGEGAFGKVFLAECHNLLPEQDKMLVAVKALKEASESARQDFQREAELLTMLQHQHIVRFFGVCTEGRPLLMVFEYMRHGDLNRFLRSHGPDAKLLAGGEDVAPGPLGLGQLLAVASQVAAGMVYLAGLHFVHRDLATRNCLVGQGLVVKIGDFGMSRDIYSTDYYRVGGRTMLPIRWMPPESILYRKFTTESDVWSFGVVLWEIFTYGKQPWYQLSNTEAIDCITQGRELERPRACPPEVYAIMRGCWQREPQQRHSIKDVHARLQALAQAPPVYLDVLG
protocol_notes: Isolated TRK enzyme assay (HTRF KinEASE-TK), PV3144 TrkA enzyme assay
conditions: arithmetic mean where more than one reading
Hi! Could you send only the number? It should be in nM, unit omitted.

Would you please look over these solved cases?
{"columns": ["compound", "test_target", "reported_result"],
 "data": [
  ["CC(CO)n1cc(C(=O)c2cncc(NC(=O)Cc3ccc(Cl)cc3)c2)c2cncc(F)c21 (single isomer, unassigned) [Example 223]", "TRKA (Homo sapiens (Human))", 27.8],
  ["CC(C)(CO)n1cc(C(=O)c2cncc(NC(=O)Cc3ccc(Cl)cn3)c2)c2cncc(F)c21", "TRKA (Homo sapiens (Human))", 7.85],
  ["CC(C)n1cc(C(=O)c2ccnc(NC(=O)Cc3nnn[nH]3)c2)c2cnccc21", "TRKA (Homo sapiens (Human))", 9800],
  ["CC(C)n1cc(C(=O)c2cncc(NC(=O)Cn3cc(C4CC4)nn3)c2)c2cnccc21", "TRKA (Homo sapiens (Human))", 68.2],
  ["CC(C)n1cc(C(=O)c2cc(NC(=O)Cc3cn(C4CC4)nc3C(F)(F)F)ccn2)c2cnccc21", "TRKA (Homo sapiens (Human))", 1680],
  ["Cc1ccn(CC(=O)Nc2cc(C(=O)c3cn(C(C)C)c4ccncc34)ccn2)n1", "TRKA (Homo sapiens (Human))", 87.1]
]}

[in] # IC50 lookup, item CC(C)n1cc(C(=O)c2ccnc(NC(=O)c3cccc(OC(F)(F)F)c3)c2)c2cnccc21
[out] 3.85
